All values here come from patent US11209437B2.

test_system: SNAP protein tags (Homo sapiens, UniProt P16455, A127T/A154D/C150Q/C62A/E30R/G131K/G132T/G153L/K125A/K32I/L33F/M134L/N157G/Q115S/Q116H/R128A/R135S/S151G/S152D/S159E)
Sequence (P16455 1-182 with the stated changes): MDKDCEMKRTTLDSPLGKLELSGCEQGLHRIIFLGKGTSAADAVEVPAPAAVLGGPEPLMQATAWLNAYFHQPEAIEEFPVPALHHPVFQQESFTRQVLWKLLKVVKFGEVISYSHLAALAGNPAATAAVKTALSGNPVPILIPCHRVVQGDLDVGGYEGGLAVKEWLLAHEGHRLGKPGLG
measurement_protocol: Fluorescence activation of probe after incubation with corresponding protein tag (SNAP)
Assay type: biochemical
settings: probe 5 μM, protein tag 10 μM, 37° C., 1 hr
The entries below come with measured Quantum yield of probe bound to protein tag values attached.
measurement_type: Quantum yield of probe bound to protein tag

CC(C)(C)OC(=O)/C(C#N)=C/c1cc2ccc(N(CCOC(=O)NCCCS(=O)(=O)O)CCOC(=O)NCc3ccc(COc4nc(N)nc5[nH]cnc45)cc3)cc2s1	0.55
CN(CCOC(=O)NCc1ccc(COc2nc(N)nc3[nH]cnc23)cc1)c1cc2sc3cc(/C=C(\C#N)c4nc5ccccc5s4)sc3c2s1	0.32
CN(CCO)c1ccc(/C=C(\C#N)C(=O)NCc2ccc(COc3nc(N)nc4[nH]cnc34)cc2)cc1 [Reference Probe 102, reference compound]	0.02
CN(CCOC(=O)NCc1ccc(COc2nc(N)nc3[nH]cnc23)cc1)c1ccc2nc(/C=C(\C#N)c3nc4ccccc4o3)oc2c1	0.21

---

measurement_protocol: Fluorescence of free probe prior to binding to a protein tag
Format: physicochemical
measurement_type: Quantum yield of free probe

CN(CCOC(=O)NCc1ccc(COc2nccc(N)n2)cc1)c1cc2c(s1)-c1sc(/C=C(/C#N)C(=O)OC(C)(C)C)cc1C2(C)C [probe 95]	<0.001
COCCNC(=O)/C(C#N)=C/c1cc2cc3sc(N(C)CCOC(=O)NCc4ccc(COc5nc(N)nc6[nH]cnc56)cc4)cc3cc2s1 [probe 71]	0.0028
CN(CCOC(=O)NCc1ccc(COc2nc(N)nc3[nH]cnc23)cc1)c1cc2c(s1)-c1sc(C=C(C#N)C#N)cc1[Si]2(C)C [probe 73]	0.0031
CC(C)(C)OC(=O)/C(C#N)=C/c1ccc(N(CCOC(=O)NCCCS(=O)(=O)O)CCOC(=O)NCc2ccc(COc3nc(N)nc4[nH]cnc34)cc2)cc1 [probe 11]	0.0013
CN(CCOC(=O)NCc1ccc(COc2nccc(N)n2)cc1)c1ccc(-c2ccc(/C=C(\C#N)C(=O)OC(C)(C)C)s2)s1 [probe 80]	0.0011
N#C/C(=C\c1ccc2c(c1)SCCN2CCO)C(=O)NCc1ccc(COc2nc(N)nc3[nH]cnc23)cc1 [Reference Probe 104, reference compound]	<0.001
CN(CCOC(=O)NCc1ccc(COc2nc(N)nc3[nH]cnc23)cc1)c1ccc2nc(/C=C(\C#N)C(=O)O)sc2c1 [probe 114]	<0.001
CN(C)c1ccc(-c2ccc(/C=C(\C#N)C(=O)NCc3ccc(COc4nc(N)nc5[nH]cnc45)cc3)s2)s1 [Reference Probe 119, reference compound]	<0.001
COCCNC(=O)/C(C#N)=C/c1ccc(-c2ccc(N(C)CCOC(=O)NCc3ccc(COc4nc(N)nc5[nH]cnc45)cc3)cc2)s1 [probe 67]	<0.001
CN(CCOC(=O)NCc1ccc(COc2nccc(N)n2)cc1)c1cc2sc(/C=C(\C#N)C(=O)OC(C)(C)C)cc2s1 [probe 27]	<0.001
CN(CCOC(=O)NCc1ccc(COc2nccc(N)n2)cc1)c1ccc(C#C/C=C(\C#N)C(=O)OC(C)(C)C)cc1 [probe 57]	<0.001
CN(CCOC(=O)NCc1ccc(COc2nc(N)nc3[nH]cnc23)cc1)c1ccc(-c2ccc(/C=C(\C#N)C(=O)OC(C)(C)C)s2)s1 [probe 77]	0.0014
CN(CCOC(=O)NCc1ccc(COc2nc(N)nc3[nH]cnc23)cc1)c1cc2sc(/C=C(\C#N)c3nc4ccccc4s3)cc2s1 [probe 23]	<0.001
CN(CCO)c1ccc(-c2ccc(/C=C(\C#N)C(=O)NCc3ccc(COc4nc(N)nc5[nH]cnc45)cc3)s2)cc1 [Reference Probe 118, reference compound]	<0.001
CN(CCOC(=O)NCc1ccc(COc2nc(N)nc3[nH]cnc23)cc1)c1cc2c(s1)-c1sc(/C=C(/C#N)C(=O)OC(C)(C)C)cc1[Si]2(C)C [probe 74]	0.0025
CN(CCOC(=O)NCc1ccc(COc2nc(N)nc3[nH]cnc23)cc1)c1ccc2nc(/C=C(\C#N)C(=O)OC(C)(C)C)oc2c1 [probe 43]	<0.001
CN(CCOC(=O)NCc1ccc(COc2nccc(N)n2)cc1)c1ccc2nc(/C=C(\C#N)C(=O)OC(C)(C)C)oc2c1 [probe 45]	<0.001
CN(CCOC(=O)NCc1ccc(COc2cc(Cl)nc(N)n2)cc1)c1cc2sc(/C=C(\C#N)C(=O)OC(C)(C)C)cc2s1 [probe 24]	<0.001
